Reference source for all entries: patent US8198302B2

Procedure summary: Recovery of CA1 from plasma
Format: in vitro ADME
Experimental context: in the presence of ascorbic acid in the extraction mixture
Text: In blood, the ortho catechol CA1 is susceptible to oxidation. […] The recovery of CA1 was resolved by incorporation of ascorbic acid as an antioxidant in the extraction mixture. In the presence of ascorbic acid the recovery of CA1 from plasma was increased to approximately 90%.

[
  {
    "Molecule": "COc1ccc(/C=C\\c2cc(OC)c(OC)c(OC)c2)c(O)c1O [CA1, Combretastatin A-1]",
    "recovery": "~90%"
  }
]

---

Tested on: tumor cells
Procedure summary: Tumor cell cytotoxicity, MTT assay
Assay type: cell-based
Experimental context: 24 h, tumor cells treated for 24 hours
Measured parameter: IC50 (µM)

[
  {
    "Compound": "COc1cc(/C=C\\c2ccc([N+](=O)[O-])c(O)c2O)cc(OC)c1OC",
    "System": "tumor cells",
    "Obs value": 0.28
  },
  {
    "Compound": "COc1cc(/C=C\\c2cccc(O)c2O)cc(OC)c1OC [ZSB-82]",
    "System": "tumor cells",
    "Obs value": 0.143
  },
  {
    "Compound": "COc1cc(/C=C\\c2ccc(F)c(O)c2O)cc(OC)c1OC",
    "System": "tumor cells",
    "Obs value": 0.546
  },
  {
    "Compound": "COc1cc(/C=C\\c2ccc(O)c(O)c2O)cc(OC)c1OC",
    "System": "tumor cells",
    "Obs value": 0.069
  },
  {
    "Compound": "CCc1ccc(/C=C\\c2cc(OC)c(OC)c(OC)c2)c(O)c1O [ZSB-76]",
    "System": "tumor cells",
    "Obs value": 0.542
  },
  {
    "Compound": "COc1cc(/C=C\\c2ccc(C)c(O)c2O)cc(OC)c1OC [ZSB-75]",
    "System": "tumor cells",
    "Obs value": 0.9
  },
  {
    "Compound": "C=CCOc1ccc(/C=C\\c2cc(OC)c(OC)c(OC)c2)c(O)c1O",
    "System": "tumor cells",
    "Obs value": 0.007
  },
  {
    "Compound": "C=CCc1ccc(/C=C\\c2cc(OC)c(OC)c(OC)c2)c(O)c1O [ZSB-77]",
    "System": "tumor cells",
    "Obs value": 0.748
  },
  {
    "Compound": "COc1cc(/C=C\\c2cc(Br)cc(O)c2O)cc(OC)c1OC [ZSB-74]",
    "System": "tumor cells",
    "Obs value": 0.34
  }
]

---

Each entry below carries its recorded Slope/Hrp.
System: Horseradish peroxidase (HRP) (Armoracia rusticana)
Construct: purchased Sigma P6782
Sequence (P00433 31-338 limits assumed): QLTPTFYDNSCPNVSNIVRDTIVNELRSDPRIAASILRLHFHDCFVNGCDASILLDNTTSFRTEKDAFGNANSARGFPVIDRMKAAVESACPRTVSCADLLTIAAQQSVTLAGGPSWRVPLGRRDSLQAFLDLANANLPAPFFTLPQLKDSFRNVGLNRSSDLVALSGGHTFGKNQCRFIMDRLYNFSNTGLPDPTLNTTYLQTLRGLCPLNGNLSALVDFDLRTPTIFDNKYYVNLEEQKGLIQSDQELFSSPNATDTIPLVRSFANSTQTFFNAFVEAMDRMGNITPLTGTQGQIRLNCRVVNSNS
Procedure summary: Peroxidase-mediated activation of catechols (HPLC loss of peak area)
Assay type: biochemical
Experimental context: slope divided by HRP concentration (ug/ml): corrected disappearance

[
  {
    "Structure smiles string": "COc1cc(/C=C\\c2ccc(F)c(O)c2O)cc(OC)c1OC",
    "Slope/Hrp": "−6675900"
  },
  {
    "Structure smiles string": "C=CCOc1ccc(/C=C\\c2cc(OC)c(OC)c(OC)c2)c(O)c1O",
    "Slope/Hrp": "−16925"
  },
  {
    "Structure smiles string": "COc1cc(/C=C\\c2ccc([N+](=O)[O-])c(O)c2O)cc(OC)c1OC",
    "Slope/Hrp": "−1902300"
  },
  {
    "Structure smiles string": "COc1cc(/C=C\\c2cc(-c3ccccc3)cc(O)c2O)cc(OC)c1OC",
    "Slope/Hrp": "−2158250"
  },
  {
    "Structure smiles string": "CCc1ccc(/C=C\\c2cc(OC)c(OC)c(OC)c2)c(O)c1O",
    "Slope/Hrp": "−5502"
  },
  {
    "Structure smiles string": "C=CCc1ccc(/C=C\\c2cc(OC)c(OC)c(OC)c2)c(O)c1O",
    "Slope/Hrp": "−19783"
  },
  {
    "Structure smiles string": "COc1cc(/C=C\\c2ccc(C)c(O)c2O)cc(OC)c1OC",
    "Slope/Hrp": "−21783"
  },
  {
    "Structure smiles string": "COc1cc(/C=C\\c2cccc(O)c2O)cc(OC)c1OC",
    "Slope/Hrp": "−1269800"
  },
  {
    "Structure smiles string": "COc1cc(/C=C\\c2cc(Br)cc(O)c2O)cc(OC)c1OC",
    "Slope/Hrp": "−182825"
  }
]
